target: human CD137 (human, UniProt Q07011); test: SPR
Sequence (Q07011 24-186): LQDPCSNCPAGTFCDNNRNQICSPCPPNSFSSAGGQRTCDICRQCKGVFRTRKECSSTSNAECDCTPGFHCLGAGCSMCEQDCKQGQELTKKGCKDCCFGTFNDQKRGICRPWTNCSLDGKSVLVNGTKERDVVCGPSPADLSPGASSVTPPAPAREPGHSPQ
pKd values, listed per item
Lab note — pKd values are minus log10 of concentrations in M.

Recorded pKd, per entry:
>  <Binder>
DART-G3 (CD137 arm) (antibody, V domains shown) VH: QVQLVQSGAEVKKPGASVKVSCKASGYTFTSYWINWVKQAPGQGLEWIGNIYPSDSYTNYNQKFKDKATITADKSTSTAYMELSSLRSEDTAVYYCTRDYGSAYSYSLWGQGTTVTVSS VL: DIQMTQSPSSLSASVGDRVTITCRPSQDISNYLNWYQQKPDKTVKLLIYYTSRLRSGVPSRFSGSGSGTDFTFTISSLQPEDIATYFCQQGDTLPYTFGQGTKLEIK

>  <Quantitative result>
7.19

$$$$
>  <Binder>
DART-D (CD137 arm) (antibody, V domains shown) VH: QVQLQQPGAELVRPGASVKLSCKASGYTFTSYWINWVKQRPGQGLEWIGNIYPSDSYTNYNQKFKDKATLTVDKSSSTAYMQLSSPTSEDSAVYYCTRDYGSSYSFDYWGQGTTLTVSS VL: DIQMTQTTSSLSASLGDRVTISCRPSQDISNYLNWYQQKPDGTVKLLIYYTSRLRSGVPSRFSGSGSGTDYSLTISNLEQEDIATYFCQQGDTLPYTFGGGTKLEIK

>  <Quantitative result>
7.28

$$$$
>  <Binder>
DART-G (CD137 arm) (antibody, V domains shown) VH: QVQLVQSGAEVKKPGASVKVSCKASGYTFTSYWINWVKQAPGQGLEWIGNIYPSDSYTNYNQKFKDKATITADKSTSTAYMELSSLRSEDTAVYYCTRDYGSSYSFDYWGQGTTVTVSS VL: DIQMTQSPSSLSASVGDRVTITCRPSQDISNYLNWYQQKPDKTVKLLIYYTSRLRSGVPSRFSGSGSGTDFTFTISSLQPEDIATYFCQQGDTLPYTFGQGTKLEIK

>  <Quantitative result>
6.94

$$$$
>  <Binder>
DART-G4 (CD137 arm) (antibody, V domains shown) VH: QVQLVQSGAEVKKPGASVKVSCKASGYTFTSYWINWVKQAPGQGLEWIGNIYPSDSYTNYNQKFKDKATITADKSTSTAYMELSSLRSEDTAVYYCTRDYGSSYSYNVWGQGTTVTVSS VL: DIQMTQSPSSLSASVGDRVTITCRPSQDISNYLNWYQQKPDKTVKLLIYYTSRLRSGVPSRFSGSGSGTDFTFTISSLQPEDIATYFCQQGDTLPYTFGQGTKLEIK

>  <Quantitative result>
7.55

$$$$

Read the next record carefully.
# input Using the record for DART-G2 (CD137 arm) (antibody, V domains shown) VH: QVQLVQSGAEVKKPGASVKVSCKASGYTFTSYWINWVKQAPGQGLEWIGNIYPSDSYTNYNQKFKDKATITADKSTSTAYMELSSLRSEDTAVYYCTRDYGSAYSMSTWGQGTTVTVSS VL: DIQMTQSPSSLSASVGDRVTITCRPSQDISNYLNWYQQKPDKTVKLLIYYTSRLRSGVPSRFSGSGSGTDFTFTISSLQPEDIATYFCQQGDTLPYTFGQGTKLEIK , report its pKd.
# output 7.22

Entry source: patent US20240233818
